TEST PROTOCOL: Phase I single dose study, plasma pharmacokinetics
Assay type: in vivo, human
CONDITION DETAILS: human, plasma, oral; all single dose groups (25 to 400 mg); read-out: Cmax levels
MEASUREMENT NAME: Cmax

For this compound ( `CCCCCCCCCCCCCCCCOCCCOP(=O)(O)CO[C@H](C)Cn1cnc2c(N)ncnc21` ), measured Cmax is > 10 nM

###

TEST PROTOCOL: Phase I single dose study, plasma pharmacokinetics
Format: in vivo, human
CONDITION DETAILS: human; plasma, single oral dose CMX157 200 mg, mean; read-out: CMX157 AUCINF
MEASUREMENT NAME: AUC(0-inf) (ng·h/mL)
Number only, in ng·h/mL; omit the unit.

Measured AUC(0-inf), `CCCCCCCCCCCCCCCCOCCCOP(=O)(O)CO[C@H](C)Cn1cnc2c(N)ncnc21` : 210

###

Tested on: HIV-1 subtypes (A-G, O)
TEST PROTOCOL: Activity against HIV-1 subtypes in PBMCs
Format: cell-based
CONDITION DETAILS: Human immunodeficiency virus 1, PBMC; read-out: EC50 against all major subtypes of HIV-1 in PBMCs
pEC50: −log10 of the molar value.
MEASUREMENT NAME: pEC50

Please fill in: pEC50 reported for `CCCCCCCCCCCCCCCCOCCCOP(=O)(O)CO[C@H](C)Cn1cnc2c(N)ncnc21` = 8.14 to 9.70

###

System: HIV-1IIIB
TEST PROTOCOL: Anti-HIV-1 cytoprotection assay (CEM-SS, XTT)
CONDITION DETAILS: CEM-SS cells, HIV-1 IIIB
pEC50: −log10 of the molar value.
MEASUREMENT NAME: pEC50

Looking up CCCCCCCCCCCCCCCCOCCCOP(=O)([O-])CO[C@H](C)Cn1cnc2c(N)ncnc21.[K+] [CMX157 K^+ salt] , I see its pEC50 listed as > 7.52

###

# CEMSS TC50 per record follows
System: CEM-SS cells
TEST PROTOCOL: Toxicity XTT in CEM-SS cells

[
  {
    "COMPOUND": "C[C@H](Cn1cnc2c(N)ncnc21)OCP(=O)(O)OCCCOCCCC(=O)O [CMX157-220]",
    "OBSERVED MEASUREMENT": ">10.0 µM"
  },
  {
    "COMPOUND": "C[C@H](Cn1cnc2c(N)ncnc21)OCP(=O)(O)OCCCOCC(=O)O [CMX157-211]",
    "OBSERVED MEASUREMENT": ">10.0 µM"
  },
  {
    "COMPOUND": "C[C@H](Cn1cnc2c(N)ncnc21)OCP(=O)(O)OCCCO [CMX157-210]",
    "OBSERVED MEASUREMENT": ">10.0 µM"
  },
  {
    "COMPOUND": "Cc1cn([C@H]2C[C@H](N=[N+]=[N-])[C@@H](CO)O2)c(=O)[nH]c1=O [AZT, 3′-azido-2′,3′-dideoxythymidine, reference compound]",
    "OBSERVED MEASUREMENT": ">0.1 µM"
  }
]

Read the next record carefully.
Record CCCCCCCCCCCCCCCCOCCCOP(=O)([O-])CO[C@H](C)Cn1cnc2c(N)ncnc21.[K+] [CMX157 K^+ salt] . Reported CEMSS TC50: 5.2 µM

###

Test system: HIV-1IIIB
TEST PROTOCOL: Anti-HIV-1 cytoprotection assay (CEM-SS, XTT)
CONDITION DETAILS: read-out: CEMSS/IIIB EC50; CEM-SS cells, HIV-1 IIIB, 6 days, XTT
MEASUREMENT NAME: EC50

Input CCCCCCCCCCCCCCCCOCCCOP(=O)([O-])CO[C@H](C)Cn1cnc2c(N)ncnc21.[K+] [CMX157 K^+ salt] . Output EC50: < 0.03 µM
